Test system: human Factor XI mRNA
Test: Dose-dependent antisense inhibition in HepG2 cells, lipofectin (Example 2)
Type: cell-based
Conditions: 9.375 nM, approximately 16 hours
In the oligonucleotide strings, read from the 5' end, every base follows the letter of its sugar. An asterisk marks phosphorothioate; unmarked linkages are phosphodiester. Other units and linkages are bracketed, terminal groups are in braces. A string of capitals states the bases alone. e = 2'-O-(2-methoxyethyl) (MOE); [5mC] = 5-methylcytosine; d = 2'-deoxy (DNA)
// values below are reported percent inhibition of Factor XI

substance	readout_unit	percent inhibition of Factor XI
413482 (antisense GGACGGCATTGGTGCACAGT; sugars from the 5' end e5 d10 e5, backbone and methylation of C not given here) [compound 413482]	%	26
413481 (antisense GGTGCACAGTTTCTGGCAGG; sugars from the 5' end e5 d10 e5, backbone and methylation of C not given here) [compound 413481]	%	22
413476 (antisense eT*eT*eG*eA*eG*dA*dT*dT*d[5mC]*dT*dT*dT*dG*dG*dG*e[5mC]*e[5mC]*eA*eT*eT) [compound 413476]	%	26

====

// values below are reported % inhibition of human Factor XI mRNA levels
System: human Factor XI mRNA
Assay: Antisense inhibition in HepG2 cells by microwalk gapmers, 75 nM, lipofectin (Example 3)
Type: cell-based
Settings: HepG2 cells, 75 nM, oligonucleotides targeted to nucleobases 1275 to 1318 of SEQ ID NO: 1
In the oligonucleotide strings, read from the 5' end, every base follows the letter of its sugar. An asterisk marks phosphorothioate; unmarked linkages are phosphodiester. Other units and linkages are bracketed, terminal groups are in braces. A string of capitals states the bases alone. e = 2'-O-(2-methoxyethyl) (MOE); [5mC] = 5-methylcytosine; d = 2'-deoxy (DNA)
observed_property: % inhibition of human Factor XI mRNA levels (%)

substance	observed_result
416936 (antisense e[5mC]*eG*eG*dA*d[5mC]*dG*dG*d[5mC]*dA*dT*dT*dG*dG*dT*dG*d[5mC]*dA*e[5mC]*eA*eG) [compound 416936]	89
416934 (antisense eG*eA*e[5mC]*dG*dG*d[5mC]*dA*dT*dT*dG*dG*dT*dG*d[5mC]*dA*d[5mC]*dA*eG*eT*eT) [compound 416934]	90
416998 (antisense e[5mC]*eA*d[5mC]*dA*dG*dT*dT*dT*d[5mC]*dT*dG*dG*d[5mC]*dA*dG*eG*e[5mC]*e[5mC]*eT*e[5mC]) [compound 416998]	88
416853 (antisense eT*eT*eG*eG*eT*dG*d[5mC]*dA*d[5mC]*dA*dG*dT*dT*dT*d[5mC]*eT*eG*eG*e[5mC]*eA) [compound 416853]	91
416939 (antisense e[5mC]*eA*eG*d[5mC]*dG*dG*dA*d[5mC]*dG*dG*d[5mC]*dA*dT*dT*dG*dG*dT*eG*e[5mC]*eA) [compound 416939]	88
416851 (antisense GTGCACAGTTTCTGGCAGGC; 5-10-5 gapmer, wing sugar chemistry not given here, further chemistry not given here) [compound 416851]	88
416859 (antisense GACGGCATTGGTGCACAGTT; 5-10-5 gapmer, wing sugar chemistry not given here, further chemistry not given here) [compound 416859]	90
416921 (antisense e[5mC]*eA*e[5mC]*dA*dG*dT*dT*dT*d[5mC]*dT*dG*dG*d[5mC]*dA*dG*dG*d[5mC]*e[5mC]*eT*e[5mC]) [compound 416921]	88
416943 (antisense e[5mC]*eT*eG*dG*d[5mC]*dA*dG*d[5mC]*dG*dG*dA*d[5mC]*dG*dG*d[5mC]*dA*dT*eT*eG*eG) [compound 416943]	92

Reference for the values: patent US20120083522A1
